- system.tested: human STING (HAQ) (Homo sapiens, UniProt Q86WV6, G230A/H232R/R293Q)
- Sequence (Q86WV6 whole entry G230A/H232R/R293Q, looked up): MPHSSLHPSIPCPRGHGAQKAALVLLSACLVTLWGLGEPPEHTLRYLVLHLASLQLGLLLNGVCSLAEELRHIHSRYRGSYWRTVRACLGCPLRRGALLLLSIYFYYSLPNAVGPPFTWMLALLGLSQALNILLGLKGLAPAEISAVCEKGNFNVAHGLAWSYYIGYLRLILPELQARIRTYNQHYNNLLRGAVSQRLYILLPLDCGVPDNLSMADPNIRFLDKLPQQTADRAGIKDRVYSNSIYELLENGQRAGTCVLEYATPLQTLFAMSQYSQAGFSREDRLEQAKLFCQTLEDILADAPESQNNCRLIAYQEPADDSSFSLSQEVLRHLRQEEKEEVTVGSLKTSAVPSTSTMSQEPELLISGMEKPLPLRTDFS
- test: Differential scanning fluorimetry (DSF), huSTING (HAQ)
- Assay type: binding
- assay.conditions: 2 μM protein, compound 100 μM; Tm with ligand minus Tm of protein alone (1% DMSO); read-out: DSF huSTING (HAQ) ΔTm (° C.)
measured.endpoint: ΔTm at 100 µM (°C)

smiles.notation | ΔTm at 100 µM, °C
COc1c(C(N)=O)ccc2c1nc(-c1cnccc1C(=O)O)n2CCn1c(-c2cnccc2C(=O)O)nc2c(OC)c(C(N)=O)ccc21 | 2.14

a = COc1c(C(N)=O)ccc2c1nc(-c1ccc(Cl)c(Cl)c1-c1nn[nH]n1)n2CCn1c(-c2ccc(Cl)c(Cl)c2-c2nn[nH]n2)nc2c(OC)c(C(N)=O)ccc21
b = COc1c(C(N)=O)ccc2c1nc(-c1c(F)cc(Cl)cc1-c1n[nH]c(=O)o1)n2CCn1c(-c2c(F)cc(Cl)cc2-c2n[nH]c(=O)o2)nc2c(OC)c(C(N)=O)ccc21
QUERY: Looking at a and b , which one comes out lower in ΔTm at 100 µM terms? Respond using the label that marks the chosen record.
RESULT: a
(a: 2.8 °C, b: 26.4 °C)

----------
- system.tested: human HAQ isoform of STING (THP-1 STING Lucia ISG cells) (Homo sapiens (Human), UniProt Q86WV6, G230A/H232R/R293Q/R71H)
- Sequence (Q86WV6 whole entry R71H/G230A/H232R/R293Q, canonical isoform): as the sequence (Q86WV6 whole entry G230A/H232R/R293Q, looked up) above, with R71H counted along it
- test: THP-1 STING Lucia ISG reporter cell line assay
- assay.conditions: 24 h incubation, QUANTI-Luc luminescence
pEC50: −log10 of the molar value.
measured.endpoint: pEC50

smiles.notation | measured.endpoint | recorded.number
COc1c(C(N)=O)ccc2c1nc(-c1c(F)cc(Cl)cc1-c1n[nH]c(=O)o1)n2CCn1c(-c2c(F)cc(Cl)cc2-c2n[nH]c(=O)o2)nc2c(OC)c(C(N)=O)ccc21 | pEC50 | 6.76
COc1c(C(N)=O)ccc2c1nc(-c1cc(Cl)c(Cl)cc1C(=O)O)n2CCn1c(-c2cc(Cl)c(Cl)cc2C(=O)O)nc2c(OC)c(C(N)=O)ccc21 | pEC50 | 6.27

I = COc1c(C(N)=O)ccc2c1nc(-c1ccc(Cl)cc1-c1n[nH]c(=O)o1)n2CCn1c(-c2ccc(Cl)cc2-c2n[nH]c(=O)o2)nc2c(OC)c(C(N)=O)ccc21
II = COc1c(C(N)=O)ccc2c1nc(-c1c(F)cccc1-c1n[nH]c(=O)o1)n2CCn1c(-c2c(F)cccc2-c2n[nH]c(=O)o2)nc2c(OC)c(C(N)=O)ccc21
QUERY: Please indicate which entry, I or II , has the lower recorded pEC50 value. Give the chosen item's label as your response.
RESULT: I
(I: 6.54, II: 6.87)

----------
- system.tested: WT human STING isoform (THP-1-Dual KI-hSTING-R232 cells) (Homo sapiens (Human), UniProt Q86WV6, H232R)
- Sequence (Q86WV6 whole entry H232R, canonical isoform): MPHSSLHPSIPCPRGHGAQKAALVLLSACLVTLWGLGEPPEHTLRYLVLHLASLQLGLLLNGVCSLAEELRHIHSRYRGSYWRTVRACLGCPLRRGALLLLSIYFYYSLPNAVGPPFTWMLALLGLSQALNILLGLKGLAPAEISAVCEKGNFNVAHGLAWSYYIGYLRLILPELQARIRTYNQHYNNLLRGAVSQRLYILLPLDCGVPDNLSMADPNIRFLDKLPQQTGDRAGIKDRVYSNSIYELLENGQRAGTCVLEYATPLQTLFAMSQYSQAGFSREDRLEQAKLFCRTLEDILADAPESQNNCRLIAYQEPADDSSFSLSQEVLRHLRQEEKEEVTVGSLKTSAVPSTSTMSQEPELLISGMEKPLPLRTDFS
- test: THP-1-Dual KI-hSTING-R232 reporter cell line assay
- assay.conditions: 24 h incubation, QUANTI-Luc luminescence
- Procedure: THP-1 STING Lucia ISG cells (InvivoGen #thpI-isg) were cultured in RPMI-1640 containing 2 mM L-glutamine, 25 mM HEPES, 100 μg/mL Normocin (InvivoGen) and 10% heat-inactivated FBS. Cells were seeded at a density of 7×10^5 cells/mL, maintained at 37° C./5% CO2, and passaged every 3-4 days. […] Data analysis: Luminescence raw data was normalised % activity relative to the signal of the positive control wells and negative control wells which were not treated with compound. […]
measured.endpoint: EC50

QUERY: Entry `COC(=O)c1cc(Br)ccc1-c1nc2c(OC)c(C(N)=O)ccc2n1CCn1c(-c2ccc(Br)cc2C(=O)OC)nc2c(OC)c(C(N)=O)ccc21` has what EC50?
RESULT: > 40 µM

QUERY: Return reported EC50; argument: `COc1c(C(N)=O)ccc2c1nc(-c1ccc(Cl)cc1-c1cn[nH]n1)n2CCn1c(-c2ccc(Cl)cc2-c2cn[nH]n2)nc2c(OC)c(C(N)=O)ccc21`
RESULT: 4.19 µM

QUERY: Query (compound): `COc1c(C(N)=O)ccc2c1nc(-c1ccc(Cl)cc1C(=O)O)n2C/C=C/Cn1c(-c2ccc(Cl)cc2C(=O)O)nc2c(OC)c(C(N)=O)ccc21` ; field requested: EC50
RESULT: > 40 µM

QUERY: Which measured EC50 value corresponds to `COc1c(C(N)=O)ccc2c1nc(-c1ccc(Cl)cc1C(=O)O)n2CCCn1c(-c2ccc(Cl)cc2C(=O)O)nc2c(OC)c(C(N)=O)ccc21` ?
RESULT: > 40 µM

QUERY: Sample `COc1c(C(N)=O)ccc2c1nc(-c1cccc(Br)c1C(=O)O)n2CCn1c(-c2cccc(Br)c2C(=O)O)nc2c(OC)c(C(N)=O)ccc21` — what was its EC50?
RESULT: > 40 µM

QUERY: For the compound shown here, `COc1ccc(-c2nc3c(OC)c(C(N)=O)ccc3n2CCn2c(-c3ccc(OC)cc3C(=O)O)nc3c(OC)c(C(N)=O)ccc32)c(C(=O)O)c1` , give the reported EC50.
RESULT: > 40 µM

----------
- system.tested: human HAQ isoform of STING (THP-1 STING Lucia ISG cells) (Homo sapiens (Human), UniProt Q86WV6, G230A/H232R/R293Q/R71H)
- test: THP-1 STING Lucia ISG reporter cell line assay
- Assay type: cell-based
- assay.conditions: 24 h incubation, QUANTI-Luc luminescence
pEC50: −log10 of the molar value.
Listed here: items and their measured pEC50.

Recorded pEC50, per entry:
compound | result
NC(=O)c1ccc2c(c1)nc(-c1ccc(Cl)cc1C(=O)O)n2CCn1c(-c2ccc(Cl)cc2C(=O)O)nc2cc(C(N)=O)ccc21 [Example 39] | < 4.40
NC(=O)c1ccc2c(c1)nc(-c1ccccc1C(=O)O)n2CCn1c(-c2ccccc2C(=O)O)nc2cc(C(N)=O)ccc21 [Example 2] | < 4.40
COC(=O)c1cc(Br)ccc1-c1nc2c(OC)c(C(N)=O)ccc2n1CCn1c(-c2ccc(Br)cc2C(=O)OC)nc2c(OC)c(C(N)=O)ccc21 [Example 13] | < 4.40
COc1c(C(N)=O)ccc2c1nc(-c1c(F)cc(Cl)cc1Br)n2CCn1c(-c2c(F)cc(Cl)cc2Br)nc2c(OC)c(C(N)=O)ccc21 [Example 45] | 5.17

QUERY: Look up pEC50: COc1c(C(N)=O)ccc2c1nc(-c1ccc(Cl)cc1C(=O)O)n2C/C=C/Cn1c(-c2ccc(Cl)cc2C(=O)O)nc2c(OC)c(C(N)=O)ccc21 [Example 34]
RESULT: < 4.40

QUERY: # lookup: pEC50 of COc1c(C(N)=O)ccc2c1nc(-c1c(F)cccc1C(=O)O)n2CCn1c(-c2c(F)cccc2C(=O)O)nc2c(OC)c(C(N)=O)ccc21 [Example 10]
RESULT: 5.80

----------
- system.tested: WT human STING isoform (THP-1-Dual KI-hSTING-R232 cells) (Homo sapiens (Human), UniProt Q86WV6, H232R)
- test: THP-1-Dual KI-hSTING-R232 reporter cell line assay
- assay.conditions: 24 h incubation, QUANTI-Luc luminescence
measured.endpoint: EC50 (µM)

1 = COc1c(C(N)=O)ccc2c1nc(-c1ccccc1-c1nn[nH]n1)n2CCn1c(-c2ccccc2-c2nn[nH]n2)nc2c(OC)c(C(N)=O)ccc21 [Example 6]
2 = COc1c(C(N)=O)ccc2c1nc(-c1cc(C)ccc1C(=O)O)n2CCn1c(-c2cc(C)ccc2C(=O)O)nc2c(OC)c(C(N)=O)ccc21 [Example 26]
QUERY: Pick one: 1 or 2 . Which has the bigger EC50 number? Pick one; state its label.
RESULT: 2

A = COc1c(C(N)=O)ccc2c1nc(-c1ccc(Br)cc1C(=O)O)n2CCn1c(-c2ccc(Br)cc2C(=O)O)nc2c(OC)c(C(N)=O)ccc21 [Example 14]
B = COc1c(C(N)=O)ccc2c1nc(-c1c(F)cc(F)cc1C(=O)O)n2CCn1c(-c2c(F)cc(F)cc2C(=O)O)nc2c(OC)c(C(N)=O)ccc21 [Example 16]
QUERY: Looking at recorded values for EC50, does A or B come in lower? Could you answer with the label of the item you picked?
RESULT: B

----------
- system.tested: human STING (HAQ) (Homo sapiens, UniProt Q86WV6, G230A/H232R/R293Q)
- test: Differential scanning fluorimetry (DSF), huSTING (HAQ)
- Format: binding
- assay.conditions: 2 μM protein, compound 100 μM; Tm with ligand minus Tm of protein alone (1% DMSO); read-out: DSF huSTING (HAQ) ΔTm (° C.)
measured.endpoint: ΔTm at 100 µM (°C)

Here are 3 molecules together with their reported answers.
molecule | recorded.number
COc1c(C(N)=O)ccc2c1nc(-c1ccccc1C(=O)O)n2CCn1c(-c2ccccc2C(=O)O)nc2c(OC)c(C(N)=O)ccc21 | 7.23
COc1c(C(N)=O)ccc2c1nc(-c1c(F)cccc1-c1nn[nH]n1)n2CCn1c(-c2c(F)cccc2-c2nn[nH]n2)nc2c(OC)c(C(N)=O)ccc21 | 25.5
COc1c(C(N)=O)ccc2c1nc(-c1ncc(Cl)cc1C(=O)O)n2CCn1c(-c2ncc(Cl)cc2C(=O)O)nc2c(OC)c(C(N)=O)ccc21 | 3.98

A = COc1c(C(N)=O)ccc2c1nc(-c1c(F)cc(Cl)cc1Br)n2CCn1c(-c2c(F)cc(Cl)cc2Br)nc2c(OC)c(C(N)=O)ccc21
B = NC(=O)c1ccc2c(c1)nc(-c1ccccc1C(=O)O)n2CCn1c(-c2ccccc2C(=O)O)nc2cc(C(N)=O)ccc21
QUERY: A or B : whose ΔTm at 100 µM is greater? Your choice should be expressed through its label.
RESULT: A

A = COc1c(C(N)=O)ccc2c1nc(-c1ccc(Cl)cc1C(=O)O)n2CCn1c(-c2ccc(Cl)cc2C(=O)O)nc2c(OC)c(C(N)=O)ccc21
B = NC(=O)c1ccc2c(c1)nc(-c1cc(Br)ccc1C(=O)O)n2CCn1c(-c2cc(Br)ccc2C(=O)O)nc2cc(C(N)=O)ccc21
QUERY: # query: argmin of ΔTm at 100 µM over A and B Output the label that corresponds to your choice.
RESULT: B

a = COc1c(C(N)=O)ccc2c1nc(-c1ccc(Cl)cc1-c1n[nH]c(=O)o1)n2CCn1c(-c2ccc(Cl)cc2-c2n[nH]c(=O)o2)nc2c(OC)c(C(N)=O)ccc21
b = COc1c(C(N)=O)ccc2c1nc(-c1ccc(Cl)cc1-c1cn[nH]n1)n2CCn1c(-c2ccc(Cl)cc2-c2cn[nH]n2)nc2c(OC)c(C(N)=O)ccc21
QUERY: Which has the smaller recorded ΔTm at 100 µM, a or b ? # respond with the chosen item's label
RESULT: b
